FYI, the data here is from paper PMC9186362.

molecular target: RnDYRK1A (Rattus norvegicus, UniProt Q63470); assay: ADP-Glo kinase assay; type: biochemical, Rattus norvegicus (Rn); conditions: IC50 DYRK1A/IC50 Haspin
Short version: Selectivity index DYRK/Haspin at least 20 is Met, less is Not met.

>>> assigned_category("COc1ccc2[nH]c(=O)c3[nH]c4ccc(OC)cc4c3c2c1 [Compound 51]")
"Not met"
>>> assigned_category("COc1ccc2[nH]c3c(=O)[nH]c4ccc(O)cc4c3c2c1 [Compound 55]")
"Met"
>>> assigned_category("COc1ccc2c(c1)[nH]c1c(=O)[nH]c3ccc(OC)cc3c12 [Compound 59]")
"Not met"
>>> assigned_category("COc1ccc2[nH]c(=O)c3[nH]c4ccc(F)cc4c3c2c1 [Compound 60]")
"Not met"
>>> assigned_category("COc1ccc2[nH]c3c(=O)[nH]c4cc(O)ccc4c3c2c1 [Compound 54]")
"Met"
>>> assigned_category("O=c1[nH]c2ccc(O)cc2c2c1[nH]c1ccccc12 [Compound 48]")
"Not met"
>>> assigned_category("O=c1[nH]c2ccc(O)cc2c2c1[nH]c1ccc(F)cc12 [Compound 61]")
"Met"
>>> assigned_category("COc1ccc2[nH]c3c(=O)[nH]c4cc(OC)c(OC)cc4c3c2c1 [Compound 52]")
"Not met"

###

biological target: RnDYRK1A (Rattus norvegicus, UniProt Q63470); experiment: ADP-Glo kinase assay; format: biochemical, Rattus norvegicus (Rn); conditions: mean n = 2; % of maximum activity of DMSO control; read-out: % Residual activity at 1 μM DYRK1A
Quick reference: remaining activity of the listed items.
Metric name: remaining activity (%)

>>> experimental_result("COc1ccc2[nH]c3c(=O)[nH]c4ccc(O)cc4c3c2c1 [Compound 55]")
2
>>> experimental_result("COc1ccc2c(c1)c1c3cc(N(C)C)ccc3[nH]c(=O)c1n2C [Compound 64]")
19
>>> experimental_result("COc1ccc2[nH]c(=O)c3[nH]c4ccc(F)cc4c3c2c1 [Compound 60]")
44
>>> experimental_result("COc1ccc2c(c1)c1c3cc(C(F)(F)F)ccc3[nH]c(=O)c1n2C [Compound 63]")
29
>>> experimental_result("COc1ccc2[nH]c3c(=O)[nH]c4ccc(NC(C)=O)cc4c3c2c1 [Compound 57]")
10
>>> experimental_result("COc1ccc2c(c1)c1c3cc(O)ccc3[nH]c(=O)c1n2C [Compound 62]")
2
>>> experimental_result("COc1ccc2[nH]c(=O)c3[nH]c4ccc(OC)cc4c3c2c1 [Compound 51]")
14
>>> experimental_result("O=c1[nH]c2ccccc2c2c1[nH]c1ccccc12 [Compound 45]")
61
>>> experimental_result("COc1ccc2[nH]c(=O)c3[nH]c4ccccc4c3c2c1 [Compound 46]")
18
>>> experimental_result("COc1ccc2[nH]c3c(=O)[nH]c4ccccc4c3c2c1 [Compound 49]")
7
>>> experimental_result("COc1ccc2[nH]c3c(=O)[nH]c4ccc(N)cc4c3c2c1 [Compound 56]")
7
>>> experimental_result("O=c1[nH]c2ccc(O)cc2c2c1[nH]c1ccccc12 [Compound 48]")
12
>>> experimental_result("O=c1[nH]c2cc(O)ccc2c2c1[nH]c1ccccc12 [Compound 47]")
33
>>> experimental_result("COc1ccc2c(c1)[nH]c1c(=O)[nH]c3ccccc3c12 [Compound 58]")
55
>>> experimental_result("COc1ccc2c(c1)[nH]c1c(=O)[nH]c3ccc(OC)cc3c12 [Compound 59]")
21
